// provenance: patent US6737383B1

# reported Rape plant response rating; entries follow
System: rape
Assay: Test B pre/postemergence rape
Assay type: in vivo, Brassica napus
Settings: Preemergence, Rate 250 g/ha; scale of 0 to 10 where 0 is no effect and 10 is complete control
endpoint: Rape plant response rating

In [3]: df
Out[3]:
                                   compound  test_target  result
0  CCC(CC)n1c(=O)on(C(=O)N(c2ccc(F)cc2F)C(C)C)c1=O         rape       1
1  CC(C)N(C(=O)n1oc(=O)n(CC2CCCC2)c1=O)c1ccc(F)cc1         rape       0
2  CC(C)N(C(=O)n1oc(=O)n(C(C)Cl)c1=O)c1ccc(F)cc1 (stereo not drawn)         rape       0

* * *

Tested on: wild oat
Assay: Test B pre/postemergence wild oat
Type: in vivo, Avena fatua
Settings: Preemergence, Rate 500 g/ha; scale 0 to 10, 0 is no effect, 10 is complete control
endpoint: Wild oats plant response rating

                                   molecule  test_target  result
0  CC(C)N(C(=O)n1oc(=O)n(C(C)CCl)c1=O)c1ccccc1 (stereo not shown) [Compound 411]     wild oat      10
1  CC(C)N(C(=O)n1oc(=O)n(CCl)c1=O)c1ccc(F)cc1F [Compound 437]     wild oat       0
2  CC(C)N(C(=O)n1oc(=O)n(C(C)CCl)c1=O)c1ccc(Cl)cc1 (stereo not shown) [Compound 456]     wild oat       3
3  CC(C)N(C(=O)n1oc(=O)n(CCCC(F)(F)F)c1=O)c1ccc(F)cc1 [Compound 398]     wild oat       8

* * *

Tested on: pigweed
Assay: Test B pre/postemergence pigweed
Format: in vivo, Amaranthus retroflexus
Settings: Preemergence, Rate 62 g/ha; scale of 0 to 10 where 0 is no effect and 10 is complete control
endpoint: Redroot pigweed plant response rating

                                   compound  test_target  result
0  Cc1ccccc1-n1c(=O)on(C(=O)N(c2ccccc2F)C(C)C)c1=O      pigweed       0
1  Cc1ccccc1-n1c(=O)on(C(=O)N(c2cccc(F)c2)C(C)C)c1=O      pigweed       0
2  CCC(=O)Cn1c(=O)on(C(=O)N(c2ccc(F)cc2)C(C)C)c1=O      pigweed       0
3  COC(CCl)n1c(=O)on(C(=O)N(c2ccccc2)C(C)C)c1=O (centres unmarked)      pigweed       5
4  C=C(Cn1c(=O)on(C(=O)N(c2ccccc2)C(C)C)c1=O)C(C)(C)C      pigweed       0
5  CC(C)N(C(=O)n1oc(=O)n(-c2ccc3ccccc3c2)c1=O)c1ccccc1      pigweed       0
6  CC(C)N(C(=O)n1oc(=O)n(CCC2CCCCC2)c1=O)c1ccc(F)cc1      pigweed       0
7  CC(C)N(C(=O)n1oc(=O)n(C(C)C2=NOCC2)c1=O)c1ccc(F)cc1F (racemic)      pigweed       6

* * *

# reported Bedstraw plant response rating; entries follow
Test system: bedstraw
Assay: Test B pre/postemergence bedstraw
Format: in vivo, Galium aparine
Conditions: Rate 62 g/ha, Postemergence; scale of 0 to 10 where 0 is no effect and 10 is complete control
endpoint: Bedstraw plant response rating

>>> df
                                   compound                        endpoint  result
0  CC(C)N(C(=O)n1oc(=O)n(C)c1=O)c1ccccc1 [Compound 409]  Bedstraw plant response rating       0
1  CCC(=O)Cn1c(=O)on(C(=O)N(c2ccc(F)cc2)C(C)C)c1=O [Compound 252]  Bedstraw plant response rating       0
2  CCOC(=O)Cn1c(=O)on(C(=O)N(c2ccc(F)cc2)C(C)C)c1=O [Compound 128]  Bedstraw plant response rating       0
3  Cc1cc(C)c(-n2c(=O)on(C(=O)N(c3ccc(F)cc3)C(C)C)c2=O)c(Br)c1 [Compound 224]  Bedstraw plant response rating       3
4  COCCOCn1c(=O)on(C(=O)N(c2ccc(F)cc2)C(C)C)c1=O [Compound 220]  Bedstraw plant response rating       6

* * *

System: wild oat
Experiment: Test B pre/postemergence wild oat
Type: in vivo, Avena fatua
Conditions: Preemergence, Rate 250 g/ha; scale 0 to 10, 0 is no effect, 10 is complete control
endpoint: Wild oats plant response rating

                                   compound  result
0  CC(C)N(C(=O)n1oc(=O)n(C(C)C#N)c1=O)c1ccc(Cl)cc1 (stereo not drawn) [Compound 451]       0
1  CC(C)N(C(=O)n1oc(=O)n(CC[N+](=O)[O-])c1=O)c1ccc(Cl)cc1 [Compound 483]       0
2  CC(C)N(C(=O)n1oc(=O)n(CCl)c1=O)c1ccc(F)cc1F [Compound 437]       0

* * *

Tested on: wild oat
Experiment: Test B pre/postemergence wild oat
Assay type: in vivo, Avena fatua
Conditions: Rate 62 g/ha, Postemergence; scale of 0 to 10 where 0 is no effect and 10 is complete control
Procedure: […] At the same time, these crop and weed species were also treated with postemergence applications of test chemicals formulated in the same manner. […] Treated plants and controls were maintained in a greenhouse for twelve to sixteen days, after which all species were compared to controls and visually evaluated. […]
endpoint: Wild oats plant response rating

>>> df
                                   molecule  result
0  CC(C)N(C(=O)n1oc(=O)n(C2(C)CC2)c1=O)c1ccccc1 [Compound 360]       3
1  CC(C)Cn1c(=O)on(C(=O)N(c2ccc(F)cc2F)C(C)C)c1=O [Compound 394]       0
2  CC(C)N(C(=O)n1oc(=O)n(C(C)Cl)c1=O)c1ccc(F)cc1 (centres unmarked) [Compound 393]       0
3  CCC(CC)n1c(=O)on(C(=O)N(c2ccc(F)cc2F)C(C)C)c1=O [Compound 353]       0
4  CCOC(=O)C(C)N(C(=O)n1oc(=O)n(-c2c(C)cccc2C)c1=O)c1ccc(F)cc1 (centres unmarked) [Compound 244]       0

* * *

System: crabgrass
Assay: Test B pre/postemergence crabgrass
Assay type: in vivo, Digitaria sanguinalis
Conditions: Preemergence, Rate 250 g/ha; scale of 0 to 10 where 0 is no effect and 10 is complete control
endpoint: Crabgrass plant response rating

In [3]: df
Out[3]:
                               smiles_input                         endpoint  result
0  CC(C)N(C(=O)n1oc(=O)n(C2CCCC2)c1=O)c1ccc(Cl)cc1  Crabgrass plant response rating       6
1  CC(C)N(C(=O)n1oc(=O)n(C2(C)CC2)c1=O)c1ccccc1  Crabgrass plant response rating      10
2  Cc1ccccc1-n1c(=O)on(C(=O)N(c2ccc3ccccc3c2)C(C)C)c1=O  Crabgrass plant response rating       0
